- Experiment summary: Inhibition of RNA-dependent RNA polymerase in Zika virus MR766 infected in African green monkey Vero E6 cells assessed as antiviral activity
pEC50: −log10 of the molar value.

Item smiles: CCCCCOCc1c(Nc2ccc(S(N)(=O)=O)cc2)nc(N2CCOCC2)nc1C(=O)NCCOc1ccccc1
pEC50: 5.69

###

- Experiment summary: Inhibition of MTase in Zika virus infected in African green monkey Vero cells assessed as antiviral activity incubated for 5 days by inverted microscopic method
pEC50: −log10 of the molar value.

Item smiles: O=C1c2cccc3cccc(c23)C(=O)N1CCc1ccc(S(=O)(=O)N2CCN(c3ccccc3)CC2)cc1
pEC50: 5.32

###

- Assayed system: Nonstructural protein 3 (Zika virus)
- Sequence (A0A024AXB9 whole entry): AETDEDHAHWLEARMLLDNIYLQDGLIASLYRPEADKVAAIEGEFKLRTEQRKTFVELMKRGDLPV
- Experiment summary: Inhibition of NS2B-NS3 protease in Zika virus Puerto Rico/PRVABC5 infected in human Huh7 cells assessed as antiviral activity measured 48 hrs post infection by RT-PCR method
pEC50: −log10 of the molar value.
Readout type: pEC50

Item smiles: CO[C@@H]1[C@@H](OC(N)=O)[C@@H](O)[C@H](Oc2ccc3c(O)c(NC(=O)c4ccc(O)c(CC=C(C)C)c4)c(=O)oc3c2C)OC1(C)C
Readout type: pEC50
Numeric result: 4.61

###

- Assayed system: Genome polyprotein (Zika virus)
- Experiment summary: Inhibition of RNA-dependent RNA polymerase in Zika virus Malaysian P 6-740 infected in human Huh-7 cells assessed as antiviral activity by neutral dye based colorimetric method
pEC50: −log10 of the molar value.

Item smiles: Nc1ncnc2c([C@@H]3N[C@H](CO)[C@@H](O)[C@H]3O)c[nH]c12
pEC50: 4.84

###

- Assayed system: Genome polyprotein (Zika virus)
- Experiment summary: Inhibition of RNA-dependent RNA polymerase in Zika virus PRVABC-59 infected in human RD cells assessed as antiviral activity by neutral dye based colorimetric method

Item smiles: Nc1ncnc2c([C@@H]3N[C@H](CO)[C@@H](O)[C@H]3O)c[nH]c12
EC50 [µM]: 14.3

###

- Assayed system: UniProt:A0A143MHK7
- Experiment summary: Inhibition of RNA-dependent RNA polymerase in Zika virus MR766 infected in African green monkey Vero cells assessed as antiviral activity by methylene blue staining based by Plaque reduction assay
pEC50: −log10 of the molar value.
Readout type: pEC50

Item smiles: Nc1ncnc2c1ccn2[C@@H]1O[C@H](CO)[C@@H](O)[C@H]1O
Numeric result: 5.89

###

- Experiment summary: Inhibition of RNA-dependent RNA polymerase in Zika virus PRVABC59 infected in African green monkey Vero cells assessed as antiviral activity measured 96 hrs post infection by plaque assay

Item smiles: O=C(NC(=S)Nc1ccc(N2CCN(C(=O)c3cccs3)CC2)cc1)c1sc2ccccc2c1Cl
EC50 (nM): 94

###

- Assayed system: Genome polyprotein (Zika virus, UniProt A0A143MHK7)
- Sequence (A0A143MHK7 whole entry): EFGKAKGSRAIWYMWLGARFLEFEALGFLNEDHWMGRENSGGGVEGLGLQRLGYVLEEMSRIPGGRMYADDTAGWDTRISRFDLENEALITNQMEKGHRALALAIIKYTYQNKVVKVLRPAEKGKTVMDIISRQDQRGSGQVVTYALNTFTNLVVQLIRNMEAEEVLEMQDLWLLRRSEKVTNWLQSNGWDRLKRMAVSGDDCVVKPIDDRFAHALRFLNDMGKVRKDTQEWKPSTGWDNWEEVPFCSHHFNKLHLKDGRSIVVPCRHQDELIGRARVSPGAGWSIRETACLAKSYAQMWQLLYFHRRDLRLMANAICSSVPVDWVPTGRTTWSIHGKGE
- Experiment summary: Inhibition of RNA-dependent RNA polymerase in Zika virus PRVABC-59 infected in African green monkey Vero cells assessed as antiviral activity by neutral dye based colorimetric method

Item smiles: Nc1ncnc2c([C@@H]3N[C@H](CO)[C@@H](O)[C@H]3O)c[nH]c12
Unit symbol: µM
EC50: 14.3
